These data points were gathered from patent US20020028938A1.

Readings of melting point for the listed molecules

> print(dat)
                                   molecule  value.observed
1  CS(=O)(=O)c1ccc(-c2cnn(CCc3ccccc3)c(=O)c2-c2ccc(F)cc2)cc1   170 to 171 °C

Query: melting point; subject: `CS(=O)(=O)c1ccc(-c2cnn(-c3ccc(F)c(F)c3)c(=O)c2Cc2cccc(F)c2)cc1` 161 to 163 °C

Query: melting point; subject: `CC(C)(C)COc1c(-c2ccc(S(N)(=O)=O)cc2)cnn(CC(F)(F)F)c1=O` 123 to 124 °C

Query: melting point; subject: `NS(=O)(=O)c1ccc(-c2cnn(Cc3c(F)cc(F)cc3F)c(=O)c2-c2ccc(F)cc2)cc1` 201 to 203 °C

Query: melting point; subject: `CS(=O)(=O)c1ccc(-c2cnn(-c3ccc(F)cc3)c(=O)c2OCCC2CC2)cc1` 111 to 117 °C

Query: melting point; subject: `CC(C)(C)COc1c(-c2ccc(S(C)(=O)=O)cc2)cnn(CC(F)(F)F)c1=O` 145 to 146 °C

Query: melting point; subject: `CS(=O)(=O)c1ccc(-c2cnn(-c3ccccc3C=O)c(=O)c2-c2ccc(F)cc2)cc1` 234 to 236 °C

Query: melting point; subject: CS(=O)(=O)c1ccc(-c2cnn(C3CCc4ccccc43)c(=O)c2-c2ccc(F)cc2)cc1 (centres unmarked) 128 to 130 °C

----------
Readings of inhibition in vivo at 3 mg/kg for the listed compounds
# Tested on: air pouch prostaglandin biosynthesis (Cox-2)
# Method Notes: Carrageenan induced air pouch prostaglandin biosynthesis model (CAP)
# Format: in vivo, rat
# Run Parameters: 4 h; 3 mpk, rat; read-out: CAP % Inhib. @ 3 mpk
Your answer is read as %, so omit the unit and give the number.

Query: inhibition in vivo at 3 mg/kg; subject: COC(C)CCOc1c(-c2ccc(S(C)(=O)=O)cc2)cnn(-c2ccc(F)c(F)c2)c1=O (stereo not drawn) [Example 353] 0

----------
# Method Notes: Pharmacokinetic profile (plasma concentration, half life, AUC)
# Type: in vivo, Rat
# Run Parameters: Rat IV (3mg/kg)
Experimental Readout: half-life (min)

(1) CC(C)CCOc1c(-c2ccc(S(C)(=O)=O)cc2)cnn(-c2ccc(F)cc2)c1=O
(2) CC(C)(O)CCOc1c(-c2ccc(S(C)(=O)=O)cc2)cnn(-c2ccc(F)cc2)c1=O
Would you let me know which has the greater half-life value, 1 or 2 ? Answer = label. 2

----------
Experimental Readout: melting point

> print(dat)
                               smiles.entry  value.observed
1  CS(=O)(=O)c1ccc(-c2cnn(-c3ccc(Cl)cc3)c(=O)c2-c2ccc(F)cc2)cc1   214 to 216 °C
2  CS(=O)(=O)c1ccc(-c2cnn(CC(F)(F)F)c(=O)c2Oc2ccc(C#N)cc2)cc1   179 to 181 °C
3  Cc1ccsc1-n1ncc(-c2ccc(S(C)(=O)=O)cc2)c(-c2ccc(F)cc2)c1=O   215 to 217 °C
4  CS(=O)(=O)c1ccc(-c2cnn(CC(F)(F)F)c(=O)c2Nc2ccc(F)cc2)cc1   158 to 160 °C
5  CC(C)CCc1c(-c2ccc(S(N)(=O)=O)cc2)cnn(-c2ccc(F)c(F)c2)c1=O   171 to 173 °C
6  CS(=O)(=O)c1ccc(-c2cnn(-c3cccc(Cl)c3)c(=O)c2-c2ccc(F)cc2)cc1   232 to 235 °C
7  CC(C)CCc1c(-c2ccc(S(C)(=O)=O)c(F)c2)cnn(-c2ccc(F)c(Cl)c2)c1=O   102 to 104 °C

Query molecule follows.
Query: melting point; subject: `CC(C)COc1c(-c2ccc(S(N)(=O)=O)c(F)c2)cnn(CC(F)(F)F)c1=O` 163 to 164 °C
